Listing of recorded ratio over background by entry.
Molecular target: T1, soluble human insulin receptor-immunoglobulin heavy chain chimera (human, UniProt P06213 28-956, limits assumed)
T1 construct: extracellular domain; also called sIR-Fc; IR (prepared according to Bass et al., 1996); not shown: immunoglobulin heavy chain constant domains (Bass et al., 1996)
Assay: phage ELISA
No end group written: not given here.

binder	ratio over background / ratio
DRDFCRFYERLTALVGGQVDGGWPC (on phage) [20C-3-F6-IGFR]	1.9
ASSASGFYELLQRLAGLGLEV (on phage) [20E2B-3-C4-IGFR]	3.3
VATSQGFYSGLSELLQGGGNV (on phage) [20E2B-3-E12-IGFR]	0.8
EGSGFYGYFFSLLGLQG (on phage) [NNRPγ-4-A9-IR]	1.4
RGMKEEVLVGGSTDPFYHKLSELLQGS (on phage) [B6Hα-3-F11-IR]	1.6
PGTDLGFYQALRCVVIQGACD (on phage) [20E2B-2-B2-IGFR]	0.6
RLFYCGIQALGANLGYSGCV (on phage) [R20α-4-20A12-IR]	2.4
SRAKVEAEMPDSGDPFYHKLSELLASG (on phage) [B6Hα-1-A3-IR]	0.8
SGAKVIVVTGDSGDPFYHKLSELLQGS (on phage) [B6Hα-2-C10-IR]	1.1
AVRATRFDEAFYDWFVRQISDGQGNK (on phage) [H2CA-4-F6-IGFR]	1.1
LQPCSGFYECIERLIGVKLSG (not fully specified (bridges); cysteine pairing not given here, on phage) [20E2Bβ-4-G7-IR]	1.6
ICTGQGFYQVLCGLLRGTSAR (on phage) [20E2B-2-B3-IGFR]	0.7
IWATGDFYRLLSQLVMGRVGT (on phage) [20E2B-2-28-IGFR]	0.8
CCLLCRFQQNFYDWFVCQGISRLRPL (on phage) [H2CA-2-B4-IGFR]	1.1
